System: production and secretion of NGF on L-M cells
procedure details: Promoting action for the production and secretion of NGF on L-M cells of mouse (ELISA)
Assay type: cell-based
measurement conditions: Mus musculus, 24 h, Table 2; 0.03 mM; 24-hr culture; read-out: Ratio of NGF increase, 24-hr culture
Excerpt: Catecholamines have also been found in a relatively high concentration to accelerate these functions without being mediated by adrenergic receptors [Y. Furukawa et al., J. Biol. Chem., 261, 6039-6047 (1986)]. The compound having a high activity in Table 1, that is, the catechol derivative having a n-alkyl group in the 3 or 4 position on the ring has been observed an acute cell toxicity in higher concentrations. […]
Output Fulfilled for records whose fold induction at 30 µM is lower than 4, Not fulfilled for records at or above 4.

molecule: COc1ccc(C)cc1O [4-Methylguaiacol, reference compound]
classification: Fulfilled
//
molecule: Cc1ccc2c(c1)OC(C)(C)O2
classification: Fulfilled
//
molecule: Cc1ccc2oc(=O)oc2c1 [CO-, R1 = H, R2 = Methyl, 4-methyl-o-phenylenecarbonate]
classification: Not fulfilled
//
molecule: Cc1ccc2oc(=O)c(=O)oc2c1
classification: Not fulfilled
//
molecule: CC(=O)Oc1ccc(C)cc1OC(C)=O
classification: Not fulfilled

----------
procedure details: Acute toxicity (LD50)
measurement conditions: mouse, in vivo, ip; intraperitoneal injection; read-out: LD50 i.p.
Listed next: entries and their corresponding LD50.

structure smiles: CCCc1ccc(O)c(O)c1
LD50: > 500 mg/kg

structure smiles: Cc1ccc(O)c(O)c1
LD50: > 200 mg/kg

structure smiles: CCCc1ccc2c(c1)OC(C)(C)O2
LD50: > 1500 mg/kg

structure smiles: CCCc1ccc(OC(C)=O)c(OC(C)=O)c1
LD50: > 750 mg/kg

structure smiles: CCCCc1ccc(O)c(O)c1
LD50: > 500 mg/kg

structure smiles: CCc1ccc(O)c(O)c1
LD50: > 300 mg/kg

structure smiles: CCCc1ccc2oc(=O)oc2c1
LD50: > 1000 mg/kg

structure smiles: CCCc1ccc2oc(=O)c(=O)oc2c1
LD50: > 1250 mg/kg

----------
System: production and secretion of NGF on L-M cells
procedure details: Promoting action for the production and secretion of NGF on L-M cells of mouse (ELISA)
Format: cell-based
measurement conditions: Mus musculus, 24 h, read-out: Ratio of NGF increase

compound: CCCCc1ccc(O)c(O)c1 [R = Two H, R1 = H, R2 = n-Butyl, 4-n-butylcatechol]
fold induction at 30 µM: 8.21

compound: Cc1ccc(O)c(O)c1 [R = Two H, R1 = H, R2 = Methyl, 4-Methylcatechol]
fold induction at 30 µM: 8.91

compound: Cc1cccc(O)c1O [R = Two H, R1 = Methyl, R2 = H]
fold induction at 30 µM: 8.34

----------
procedure details: Acute toxicity (LD50)
measurement conditions: mouse, in vivo, po; read-out: LD50 p.o.
Listed next: entries and their corresponding LD50.

compound: Cc1cccc(O)c1O [R = Two H, R1 = Methyl, R2 = H]
LD50: > 500 mg/kg

compound: CCCc1cccc(O)c1O [R = Two H, R1 = n-Propyl, R2 = H]
LD50: > 1500 mg/kg

----------
Test system: production and secretion of NGF on L-M cells
procedure details: Promoting action for the production and secretion of NGF on L-M cells of mouse (ELISA)
Format: cell-based
measurement conditions: Mus musculus, 24 h, read-out: Ratio of NGF increase
readout: fold induction at 30 µM

structure smiles: CCCc1cccc(O)c1O
readout: fold induction at 30 µM
reported measurement: 9.81
//
structure smiles: CCc1cccc(O)c1O
readout: fold induction at 30 µM
reported measurement: 9.76
//
structure smiles: CCCc1ccc(O)c(O)c1
readout: fold induction at 30 µM
reported measurement: 10.1
//
structure smiles: Oc1ccccc1O
readout: fold induction at 30 µM
reported measurement: 1.03
//
structure smiles: CCc1ccc(O)c(O)c1
readout: fold induction at 30 µM
reported measurement: 10
